Tested on: P. falciparum D6 (CQ-sensitive strain)
measurement-description: Antimalarial SYBR Green I-based fluorescence assay, PfD6
Type: cell-based
assay-setup: Plasmodium falciparum, D6; 120 h incubation; mean ± SEM of duplicates; NA = not active at highest concentration tested (50 μM inhibitors, 500 nM CQ); read-out: P. falciparum D6 (CQ-sensitive strain) IC50
pIC50: −log10 of the molar value.
observable: pIC50

[P] CCc1c2ccccc2c(CSC(=N)N)c2ccccc12 [NSC 146109]
[Q] c1ccc2c(CCNc3ccc(Nc4ccncc4)cc3)c[nH]c2c1 [JNJ 26854165, Serdemetan]
[R] COc1ccc(C2=N[C@@H](c3ccc(Cl)cc3)[C@@H](c3ccc(Cl)cc3)N2C(=O)N2CCNC(=O)C2)c(OC(C)C)c1 (racemic) [Nutlin 3]
Query: Task field, ranking: reported pIC50, descending order. List the labels according to the requested ordering.
Reply: Q, P, R

###

System: P. falciparum D6 (CQ-sensitive strain)
measurement-description: Antimalarial SYBR Green I-based fluorescence assay, PfD6
Assay type: cell-based
assay-setup: Plasmodium falciparum, D6, 96 h, read-out: P. falciparum D6 (CQ-sensitive strain) IC50
observable: pIC50
Remember the convention: pIC50 equals -log10 of concentration in molar.

Query: Fill in reported pIC50 for this entry: CCN(CC)CCCC(C)Nc1ccnc2cc(Cl)ccc12 (stereo not shown) [Chloroquine]
Reply: 7.70

###

Test system: P. falciparum W2 (CQ-resistant strain)
measurement-description: Antimalarial SYBR Green I-based fluorescence assay, PfW2
Assay type: cell-based
assay-setup: Plasmodium falciparum, W2; 48 h incubation; mean ± SEM of duplicates; NA = not active at highest concentration tested (50 μM inhibitors, 500 nM CQ); read-out: P. falciparum W2 (CQ-resistant strain) IC50
observable: IC50 (µM)

Here is how some compounds turned out for IC50.
[
  {
    "compound": "COc1ccc(C2=N[C@@H](c3ccc(Cl)cc3)[C@@H](c3ccc(Cl)cc3)N2C(=O)N2CCNC(=O)C2)c(OC(C)C)c1 (racemic)",
    "IC50 (µM)": 18.6
  },
  {
    "compound": "Cc1ccc2ccc(C(Nc3ccccc3)c3ccccc3)c(O)c2n1 (centres unmarked)",
    "IC50 (µM)": 28.7
  },
  {
    "compound": "c1ccc2c(CCNc3ccc(Nc4ccncc4)cc3)c[nH]c2c1",
    "IC50 (µM)": 1.86
  }
]

[a] CCc1c2ccccc2c(CSC(=N)N)c2ccccc12
[b] O=C1c2ccccc2-c2nc3nonc3nc21
Query: Compare a and b and name the one whose reported IC50 is smaller. Indicate your choice by writing its label.
Reply: a
(a: 2.07 µM, b: 20.6 µM)

###

Tested on: P. falciparum D6 (CQ-sensitive strain)
measurement-description: Antimalarial SYBR Green I-based fluorescence assay, PfD6
Type: cell-based
assay-setup: Plasmodium falciparum, D6; 48 h incubation; mean ± SEM of duplicates; NA = not active at highest concentration tested (50 μM inhibitors, 500 nM CQ); read-out: P. falciparum D6 (CQ-sensitive strain) IC50
pIC50: −log10 of the molar value.
observable: pIC50

[
  {
    "compound": "COc1ccc(C2=N[C@@H](c3ccc(Cl)cc3)[C@@H](c3ccc(Cl)cc3)N2C(=O)N2CCNC(=O)C2)c(OC(C)C)c1 (racemic)",
    "target-desc": "P. falciparum D6 (CQ-sensitive strain)",
    "observable": "pIC50",
    "reported-result": 4.89
  }
]

[P] c1ccc2c(CCNc3ccc(Nc4ccncc4)cc3)c[nH]c2c1
[Q] CCc1c2ccccc2c(CSC(=N)N)c2ccccc12
[R] Cc1ccc2ccc(C(Nc3ccccc3)c3ccccc3)c(O)c2n1 (centres unmarked)
[S] O=C1c2ccccc2-c2nc3nonc3nc21
Query: Arrange the 4 compounds by rising pIC50, starting with the smallest. List the labels according to the requested ordering.
Reply: R, S, Q, P
(R: 4.49, S: 4.92, Q: 5.28, P: 5.66)

Numbers sourced from paper PMC5457628.
